Read-out: Thrombomodulin, THBD (gene 7056)
measurement-notes: BSK_3C_Thrombomodulin: BioMAP Diversity Plus: 3C Assay for Thrombomodulin Biomarker Activity (AID 2283029)
recorded-conditions: primary human endothelial cells (HUVEC); actives raise or lower the signal
The source made the active and inactive calls. Rule for the calls: active = hit-call score of the fitted dose curve at least 0.9, where 1 is the maximum; inactive = score below 0.9.
Labels: YES (active), NO (inactive)

- compound: "CC(=O)OC(c1ccccc1)C(Cl)(Cl)Cl (stereo not drawn)"
  assigned-class: "NO"
- compound: "CN(C)N=O"
  assigned-class: "NO"
- compound: "CCCCCCCCc1ccc(O)cc1"
  assigned-class: "YES"
- compound: "COP(=S)(OC)Oc1ccc(Sc2ccc(OP(=S)(OC)OC)cc2)cc1"
  assigned-class: "NO"
- compound: "O=C1C2(Cl)C3(Cl)C4(Cl)C(Cl)(Cl)C5(Cl)C3(Cl)C1(Cl)C5(Cl)C24Cl (stereo not drawn)"
  assigned-class: "NO"
- compound: "CCOP(=S)(OCC)SCCS(=O)(=O)CC"
  assigned-class: "NO"
- compound: "CCOC(=O)/C=C(C)/C=C/C[C@@H](C)CCCC(C)C"
  assigned-class: "YES"
- compound: "COc1cc(-c2ccc(N)c(OC)c2)ccc1N"
  assigned-class: "NO"
- compound: "Oc1c(I)cc(I)cc1I"
  assigned-class: "NO"
- compound: "NC(=S)Nc1ccccc1"
  assigned-class: "NO"
- compound: "COP(=S)(OC)Oc1c(Cl)cc(C)cc1Cl"
  assigned-class: "NO"
- compound: "BrCCBr"
  assigned-class: "NO"
- compound: "CC(=O)C(Cl)C(=O)N(C)C (stereo not drawn)"
  assigned-class: "NO"
- compound: "OCc1ccco1"
  assigned-class: "NO"
- compound: "O=[N+]([O-])c1ccc(O)c([N+](=O)[O-])c1"
  assigned-class: "NO"
- compound: "CC(=O)[O][Hg][c]1ccccc1"
  assigned-class: "YES"
- compound: "Cn1sc(Cl)cc1=O"
  assigned-class: "NO"
- compound: "C=C(C)C(=O)[O][Sn]([CH2]CCC)([CH2]CCC)[CH2]CCC"
  assigned-class: "YES"
- compound: "Nc1ncc([N+](=O)[O-])s1"
  assigned-class: "NO"
- compound: "ClC1=C(Cl)[C@]2(Cl)[C@H]3[C@H]([C@H]4C=C[C@H]3C4)[C@@]1(Cl)C2(Cl)Cl"
  assigned-class: "NO"
- compound: "CC(C)CCCCCCOC(=O)c1ccccc1C(=O)OCCCCCCC(C)C"
  assigned-class: "NO"
- compound: "COc1cc(OC)nc(NC(=O)NS(=O)(=O)c2ncccc2C(=O)N(C)C)n1"
  assigned-class: "NO"
- compound: "CC(C)(OO)c1ccccc1"
  assigned-class: "NO"
- compound: "CC(C)(C)CC(C)(C)c1ccc(O)cc1"
  assigned-class: "NO"
- compound: "O=S(=O)(c1ccc(Cl)cc1)c1ccc(Cl)cc1"
  assigned-class: "NO"
- compound: "O=Cc1cccc(Oc2ccccc2)c1"
  assigned-class: "NO"
- compound: "CCOP(=S)(OCC)Oc1ccc(S(C)=O)cc1 (stereo not drawn)"
  assigned-class: "NO"
- compound: "O=C(O)CCC(F)(C(F)(F)F)C(F)(F)F"
  assigned-class: "NO"

====

Read-out: Cytochrome P450 (CYP1A1), CYP1A1 (gene 1543)
measurement-notes: LTEA_HepaRG_CYP1A1: Life Technologies and Expression Analysis (LTEA) Assay for Cytochrome P450 (CYP1A1) using HepaRG (AID 2283454)
recorded-conditions: mRNA level, 48 h; actives raise or lower the signal
Activity calls are given as the source filed them. How the source made its calls: active means hit-call score of the fitted dose curve at least 0.9, where 1 is the maximum; inactive means score below 0.9.
Labels: yes = active, no = inactive

- compound: "Cn1sc(Cl)cc1=O"
  assigned-class: "no"
- compound: "CCC(=O)C(CC(C)N(C)C)(c1ccccc1)c1ccccc1 (stereo not given)"
  assigned-class: "yes"
- compound: "C=C(C)C(=O)[O][Sn]([CH2]CCC)([CH2]CCC)[CH2]CCC"
  assigned-class: "yes"
- compound: "ClC1(Cl)C2(Cl)C3(Cl)C4(Cl)C(Cl)(Cl)C5(Cl)C3(Cl)C1(Cl)C5(Cl)C24Cl (stereo not given)"
  assigned-class: "yes"
- compound: "C[C@]12CCC(=O)C[C@@H]1CC[C@@H]1[C@@H]2CC[C@]2(C)[C@@H](O)CC[C@@H]12"
  assigned-class: "yes"

====

Read-out: Interleukin-8 (IL8), CXCL8 (gene 3576)
measurement-notes: BSK_LPS_IL8: BioMAP Diversity Plus: LPS Assay for Interleukin-8 (IL8) Biomarker Activity (AID 2283078)
recorded-conditions: primary human HUVEC with PBMC; actives raise or lower the signal
Method: BSK_LPS is a cell-based, multiplexed-readout assay that uses umbilical vein endothelium and peripheral blood mononuclear cells, a human vascular primary cell co-culture, with measurements taken at 24 hours after chemical dosing in a 96-well plate.BSK_LPS_IL8 is an assay component measured in the BSK_LPS assay. It measures IL-8 antibody related to regulation of gene expression using ELISA technology.Data from the assay component BSK_LPS_IL8 was analyzed into 1 assay endpoint. […]
Calls of active or inactive are those of the source. Rule for the calls: active = hit-call score of the fitted dose curve at least 0.9, where 1 is the maximum; inactive = score below 0.9.

- compound: "CCNc1nc(NC(C)(C)C)nc(SC)n1"
  AC50: "inactive"
- compound: "O=C(OC1CCCCC1)c1ccccc1C(=O)OC1CCCCC1"
  AC50: "20.9 µM (active)"
- compound: "CC(=O)OC(c1ccccc1)C(Cl)(Cl)Cl (stereo not drawn)"
  AC50: "inactive"
- compound: "CC(C)(C)CC(C)(C)c1ccc(O)cc1"
  AC50: "13.9 µM (active)"
- compound: "C=C(C)C(=O)[O][Sn]([CH2]CCC)([CH2]CCC)[CH2]CCC"
  AC50: "0.38 µM (active)"
- compound: "CCCCC(CC)CO[N+](=O)[O-] (stereo not drawn)"
  AC50: "inactive"
- compound: "O=[N+]([O-])c1ccc2c3c(cccc13)CC2"
  AC50: "inactive"
- compound: "Oc1cccc2cccnc12"
  AC50: "inactive"

====

target-system: Estrogen receptor (Homo sapiens) (UniProt P03372)
Sequence (P03372 whole entry, looked up): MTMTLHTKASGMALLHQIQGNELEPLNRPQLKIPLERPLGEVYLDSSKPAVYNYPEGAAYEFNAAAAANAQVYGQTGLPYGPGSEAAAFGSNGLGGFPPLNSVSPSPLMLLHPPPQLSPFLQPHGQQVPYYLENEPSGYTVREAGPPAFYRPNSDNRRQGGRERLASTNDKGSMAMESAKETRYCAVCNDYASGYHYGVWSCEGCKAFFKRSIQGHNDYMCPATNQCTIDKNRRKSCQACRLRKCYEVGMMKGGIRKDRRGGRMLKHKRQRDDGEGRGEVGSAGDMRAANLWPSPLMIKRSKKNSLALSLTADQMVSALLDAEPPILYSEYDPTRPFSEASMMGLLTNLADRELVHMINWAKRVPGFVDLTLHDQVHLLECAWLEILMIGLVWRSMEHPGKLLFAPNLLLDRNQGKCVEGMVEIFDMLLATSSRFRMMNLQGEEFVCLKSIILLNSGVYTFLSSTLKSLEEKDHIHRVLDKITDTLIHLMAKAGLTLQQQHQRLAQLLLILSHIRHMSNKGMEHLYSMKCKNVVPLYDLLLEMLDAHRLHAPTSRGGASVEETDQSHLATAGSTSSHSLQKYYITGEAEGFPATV
measurement-notes: ATG_ERa_TRANS: Attagene TRANS-FACTORIAL HepG2 Assay for human Estrogen Receptor alpha (ERa) (AID 2282970)
recorded-conditions: HepG2 Attagene TRANS ERa GAL4 reporter, mRNA
Results filed as inconclusive are left out. Active and inactive are the calls of the source. The calls were made as follows: active = hit-call score of the fitted dose curve at least 0.9, where 1 is the maximum; inconclusive = response in the unintended direction; inactive = score below 0.9.
Labels: true (active), false (inactive)

- compound: "COC(=O)c1sccc1S(=O)(=O)NC(=O)Nc1nc(C)nc(OC)n1"
  target-system: "Estrogen receptor (Homo sapiens) (UniProt P03372)"
  assigned-class: "false"
- compound: "CCC(=O)C(CC(C)N(C)C)(c1ccccc1)c1ccccc1 (stereo unspecified)"
  target-system: "Estrogen receptor (Homo sapiens) (UniProt P03372)"
  assigned-class: "false"
- compound: "CCc1ccccc1N"
  target-system: "Estrogen receptor (Homo sapiens) (UniProt P03372)"
  assigned-class: "false"
- compound: "CCC(C)c1cccc(C(C)CC)c1O (stereo unspecified)"
  target-system: "Estrogen receptor (Homo sapiens) (UniProt P03372)"
  assigned-class: "true"
- compound: "CC(C)(OO)c1ccccc1"
  target-system: "Estrogen receptor (Homo sapiens) (UniProt P03372)"
  assigned-class: "true"
- compound: "CN(C)P(=O)(N(C)C)N(C)C"
  target-system: "Estrogen receptor (Homo sapiens) (UniProt P03372)"
  assigned-class: "false"
- compound: "O=CC=O"
  target-system: "Estrogen receptor (Homo sapiens) (UniProt P03372)"
  assigned-class: "false"
- compound: "CC(=O)c1cc(C(C)(C)C)cc2c1CCC2(C)C"
  target-system: "Estrogen receptor (Homo sapiens) (UniProt P03372)"
  assigned-class: "false"
- compound: "NC(=O)O"
  target-system: "Estrogen receptor (Homo sapiens) (UniProt P03372)"
  assigned-class: "false"
- compound: "Clc1nc(Cl)nc(Cl)n1"
  target-system: "Estrogen receptor (Homo sapiens) (UniProt P03372)"
  assigned-class: "false"
- compound: "BrCCBr"
  target-system: "Estrogen receptor (Homo sapiens) (UniProt P03372)"
  assigned-class: "true"

====

Read-out: serum amyloid A (SAA), SAA1 (gene 6288)
measurement-notes: BSK_CASM3C_SAA: BioMAP Diversity Plus: CASM3C Assay for serum amyloid A (SAA) Biomarker Activity (AID 2283049);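 note: SAA protein level quantified by ELISA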
recorded-conditions: primary human coronary artery smooth muscle cells; actives raise or lower the signal
Activity calls are given as the source filed them. How the source made its calls: active means hit-call score of the fitted dose curve at least 0.9, where 1 is the maximum; inactive means score below 0.9.
measured-attribute: outcome

- structure: "COC[C@H](C)N(C(=O)CCl)c1c(C)csc1C"
  measured-attribute: "outcome"
  measured: "inactive"
- structure: "O=[N+]([O-])c1ccc(O)c([N+](=O)[O-])c1"
  measured-attribute: "outcome"
  measured: "inactive"
- structure: "C[C@@H]1C[C@@H]([C@H](O)CC2CC(=O)NC(=O)C2)C(=O)[C@@H](C)C1"
  measured-attribute: "outcome"
  measured: "inactive"
